Source listed as PubChem BioAssay.

- experiment.notes: RPL19A-GFP modulators, yeast TOR pathway, confirmation, cell-based, S. cerevisiae, flow cytometry, cherry picks, mother/daughter gates (AID 2270)
- details: S. cerevisiae RPL19A-GFP strain, 3 h, at 10 µM, 100 = same GFP as DMSO wells
Calls of active or inactive are those of the source.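 The calls were made as follows: active = GFP response below 50% of the DMSO control; inconclusive = fewer than 70 events counted for a yeast strain; inactive = the rest.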
Possible outcomes: 1 = active, -1 = inactive

                                    molecule  discrete_label
 0  CCOc1cccc(C(=O)Nc2ccc(NC(=O)c3cc4ccccc4o3)c(OC)c2)c1              -1
 1  Cc1ccc(S(=O)(=O)N(CC(=O)NCc2ccncc2)Cc2ccccc2F)cc1              -1
 2         COc1cccc(OCC(=O)N2CCCc3ccccc32)c1              -1
 3  COc1ccc(/C(C)=N/NC(=O)c2ccc(N(C)C)cc2)cc1              -1
 4  COc1cc(C)c(C)cc1S(=O)(=O)N1CCCCC1c1cccnc1 (stereo unspecified)              -1
 5  CC(=O)N(C1=C(Cl)C(=O)c2ccccc2C1=O)C1CCCCC1               1
 6  COc1cc(/C=C/C(=O)c2c(O)ccc3c(C)cc(=O)oc23)ccc1O              -1
 7        Cc1ccc(-c2csc(NC(=O)c3ccno3)n2)cc1              -1
 8           Cc1cc(C)nc(/N=C(\N)N2CCCCCC2)n1              -1
 9  O=C(Nc1ccc(NC(=O)c2cc3ccccc3o2)cc1)c1ccc2c(c1)OCCO2              -1
10  CCOc1ccccc1C1N=C(c2ccc(OC)cc2)CC(c2ccccc2O)N1 (stereo unspecified)              -1
11  COc1ccc(-c2nn(-c3ccccc3)cc2C(=O)NC(=S)NNC(=O)c2ccncc2)cc1              -1
12  CCN(CC)c1ccc2cc(-c3nc4ccccc4[nH]3)c(=O)oc2c1              -1
13  CCN(CC)c1ccc(/C=C/c2ccc3ccc(OC)cc3[n+]2CC)cc1              -1
14  CCC(=O)OCCNc1cc(Sc2nc3ccccc3s2)c2nonc2c1[N+](=O)[O-]              -1
15  CCOc1ccc2ccccc2c1C(=O)N1CCN(c2ccccc2)CC1              -1
